- Test system: HepG2
- procedure_text: Protection against AfB1-induced toxicity in human HepG2 cells assessed as live cell area at 50 uM measured after 48 hrs by calcein-AM/Hoechst 33342 staining based high-content imaging analysis relative to control
- Type: functional
readout_kind: %max (%)
Give the number; % is assumed, so skip it.

Some solved entries appear below for comparison.
Name the recorded %max for COc1cc(O)c2c(=O)oc3cc(O)cc(C)c3c2c1 .
67

Name the recorded %max for COc1cc(C(O)c2ccccc2)ccc1O (stereo unspecified) .
41

Name the recorded %max for COc1cc(O)c2c(=O)oc3cc(O)c(O)cc3c2c1 .
65.7

Name the recorded %max for COc1cc(C(=O)c2ccccc2)ccc1O .
60.2

Name the recorded %max for COc1ccc(C(=O)c2ccc(OC)cc2O)c(O)c1 .
53.9

Note: attention shifts to another entry.
Name the recorded %max for COC(=O)c1cc(O)cc(OC)c1C(=O)c1c(O)cc(C)cc1OC .
68.3
